Data origin, for the record: patent US20150135829A1

Each entry below lists one item and its recorded Accessible Density Range value.
Test: Density and magnetic susceptibility of paramagnetic ionic liquids from MagLev levitation height of density standard beads
Type: physicochemical
Settings: range of densities that can be levitated in MagLev

Look over these answered cases.
- COC(=O)[C@H](C)[NH3+].[Cl][Fe-]([Cl])([Cl])[Cl] [[AlaC1] [FeCl4]]: 1.15 to 1.93 g/mL
- CCCCCCCC[N+](C)(CCCCCCCC)CCCCCCCC.CCCCCCCC[N+](C)(CCCCCCCC)CCCCCCCC.CCCCCCCC[N+](C)(CCCCCCCC)CCCCCCCC.[Br][Ho-3]([Br])([Br])([Br])([Br])[Br] [[Aliq]3 [HoBr6]]: 1.01 to 1.15 g/mL

Next:
Recall and state the measured Accessible Density Range for CCCCn1cc[n+](C)c1.[Cl][Fe-]([Cl])([Cl])[Cl] [[BMIM] [FeCl4]] . 0.96 to 1.83 g/mL
